Target: T1, human GIP receptor (human) (UniProt P48546)
T1 sequence (looked up): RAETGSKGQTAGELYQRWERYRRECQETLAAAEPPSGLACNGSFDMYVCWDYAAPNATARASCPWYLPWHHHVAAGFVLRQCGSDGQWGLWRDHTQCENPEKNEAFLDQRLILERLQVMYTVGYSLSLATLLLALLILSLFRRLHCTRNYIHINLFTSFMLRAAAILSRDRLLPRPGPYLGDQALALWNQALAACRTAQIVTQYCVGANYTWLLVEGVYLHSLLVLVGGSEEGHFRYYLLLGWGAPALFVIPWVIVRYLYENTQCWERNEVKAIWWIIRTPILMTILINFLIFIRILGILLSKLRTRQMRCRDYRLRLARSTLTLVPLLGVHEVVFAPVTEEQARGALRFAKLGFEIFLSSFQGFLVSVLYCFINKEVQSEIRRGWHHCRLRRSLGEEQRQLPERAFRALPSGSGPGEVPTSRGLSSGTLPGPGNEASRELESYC
Test: cell-based or functional assay
Task for the reader: assign each of the following binders its reported cAMP Rel EC50 (in the presence of 1% HSA).
Numbers only here, please. The scale is nM.

Query (binder): YXQGTFTSDFSKXLDKKAQXAFIEYLLEXGPSSGAPPPSGS (synthetic construct; SITE 2: note = 2-Aminoisobutyric Acid; SITE 13: note = alpha-methyl-leucine; SITE 17: note = Lysine is chemically modified through conjugation of the epsilon-amino group of the Lysine side chain with (2-[2-(2-Amino-ethoxy)-ethoxy]-acetyl)-(gamma-Glu)-CO-(CH2) 18-CO2H; SITE 20: n) [Example 45] ; field requested: cAMP Rel EC50 (in the presence of 1% HSA)
33.4

Next binder: YXQGTFTSDFSXXLDKKAQXAFIEWLLEGGHSSGAPPPSGH (Aib, Orn, αMeL; K acylated AEEA-γGlu-C18 diacid; C-terminal amide; synthetic construct; SITE 2: note = 2-Aminoisobutyric Acid; SITE 12: note = L-ornithine; SITE 13: note = alpha-methyl-leucine; SITE 17: note = Lysine is chemically modified through conjugation of the epsilon-amino group of the Lysine side chain with (2-[2-(2-Amino-ethoxy)-ethoxy]-acetyl)-(gamma-Glu)) [Example 269]
21.9

Next binder: YXQGTXTSDXXIXLDXKAQXEFIEXLIEGGPPSXXPPPXSE (non-natural residues; acylated Lys; C-terminal amide; synthetic construct; SITE 2: note = 2-Aminoisobutyric Acid; SITE 6: note = alpha-methyl-2-fluoro-L-phenylalanine; SITE 10: note = 3-(4-Pyridyl)-L-alanine; SITE 11: note = alpha-methyl-L-serine; SITE 13: note = alpha-methyl-leucine; SITE 16: note = L-ornithine; SITE 17: note = Lysine is chemically mo) [Example 1196]
0.605

Next binder: YXQGTXTSDYSKXLDKKAQXQFIEYLEEGGPSSGEPPPSEG (non-natural residues; lipidated Lys; C-terminal amide; synthetic construct; SITE 2: note = 2-Aminoisobutyric Acid; SITE 6: note = alpha-methyl-2-fluoro-L-phenylalanine; SITE 13: note = alpha-methyl-leucine; SITE 17: note = Lysine is chemically modified through conjugation of the epsilon-amino group of the Lysine side chain with (2-[2-(2-Amino-ethoxy)-et)) [Example 292]
92.7

Next binder: YXQGTXTSDXXILLDXKAQXXFIEYLIEGGPSSGEPPPEGSEE (non-natural residues; lysine acylated with C18 diacid; C-terminal amide; synthetic construct; SITE 2: note = 2-Aminoisobutyric Acid; SITE 6: note = alpha-methyl-2-fluoro-L-phenylalanine; SITE 10: note = 3-(4-Pyridyl)-L-alanine; SITE 11: note = alpha-methyl-L-serine; SITE 16: note = L-ornithine; SITE 17: note = Lysine is chemically modified through conjugation of the epsi) [Example 603]
4.99

Next binder: YXQGTXTSDXSILLDKKAQXAFIEYLEEGGPSSGAPPPSGGEE (non-natural residues; acylated Lys C18 diacid; C-term amide; synthetic construct; SITE 2: note = 2-Aminoisobutyric Acid; SITE 6: note = alpha-methyl-2-fluoro-L-phenylalanine; SITE 10: note = 3-(4-Pyridyl)-L-alanine; SITE 17: note = Lysine is chemically modified through conjugation of the epsilon-amino group of the Lysine side chain with (gamma-Glu)2-CO-(CH2)1) [Example 612]
7.58

These entries and their values trace back to patent US20240270821A1.
